Reference source: PubChem BioAssay

Task for the reader: assign each of the following molecules its reported Her2 level.
- STUDY_SYSTEM: Receptor tyrosine-protein kinase erbB-2 (Homo sapiens)
- METHOD_SUMMARY: reducers of endogenous Her2 protein level, primary screen, SKBR3 breast tumor cells, AlphaScreen, ATP viability (AID 461);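 further: lower value means less Her2 protein in the cells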
- ASSAY_CONTEXT: 18-24 h, at 10 µM, stronger effect = lower value
Give the value in % but do not write % after it.

Asked: Query Her2 level for Cc1nc(Nc2nc(=O)c3ccccc3n2C)nc2c(C)cccc12
Given back: 98

Asked: Query Her2 level for CCCC(=O)Nc1ccc(NC(=O)C2CC2)cn1
Given back: 112

Asked: Query Her2 level for O=C(O)CCC(=O)Nc1ccc(S(=O)(=O)Nc2nccs2)cc1
Given back: 98.5

Asked: Query Her2 level for c1ccc2c(CC3=NCCN3)cccc2c1
Given back: 99.5

Asked: Query Her2 level for COc1cccc(NC(=O)Cc2nnc(SCC(=O)c3ccccc3)n2C)c1
Given back: 83.5

Asked: Query Her2 level for Cc1c(C(=O)O)sc2ncn(C)c(=O)c12
Given back: 78

Asked: Query Her2 level for Cc1ccccc1C(OCCN(C)C)c1ccccc1 (configuration not stated)
Given back: 86

Asked: Query Her2 level for Cc1ccc(-c2nc3ncccc3o2)cc1NC(=O)c1ccco1
Given back: 76.5

Asked: Query Her2 level for O=S(=O)(Nc1ccn(-c2ccccc2)n1)c1ccc(Br)cc1
Given back: 86.5

Asked: Query Her2 level for C[C@]12CC[C@@H]3c4ccc(OS(=O)(=O)O)cc4CC[C@H]3[C@@H]1CCC2=O
Given back: 108

Asked: Query Her2 level for O=C(Nc1cccc(F)c1)c1ccc2c(c1)OCO2
Given back: 106

Asked: Query Her2 level for CC(=O)OCC(=O)[C@@]1(O)[C@H](C)C[C@H]2[C@@H]3CCC4=CC(=O)C=C[C@]4(C)[C@@]3(F)[C@@H](O)C[C@@]21C
Given back: 116

* * *

Task for the reader: assign each of the following molecules its reported viability.
- METHOD_SUMMARY: reversal of MRP1-mediated doxorubicin resistance, pilot screen, H69AR cells, doxorubicin co-treatment (AID 601)
- ASSAY_CONTEXT: H69AR cells + 2 uM doxorubicin, CellTiter-Glo, 72 h; measured here: viability with 2 uM doxorubicin; at 10 µM; stronger effect = lower value
Give the value in % but do not write % after it.

Asked: Query viability for CC(=O)Nn1c(C)nnc1-n1nc(C)cc1C
Given back: 93.4

Asked: Query viability for Cc1ccc(N2CC(C(=O)Nc3nnc(C)s3)CC2=O)cc1 (stereo not drawn)
Given back: 89.9

Asked: Query viability for CCOc1ccc(Cl)cc1S(=O)(=O)N1CCCC1
Given back: 94.5

Asked: Query viability for CCS(=O)(=O)c1nc2ccccc2n1CC(=O)N1CCCCC1
Given back: 76.8

Asked: Query viability for COc1cccc(-c2noc(C3CCCN(C(=O)Cc4ccccc4)C3)n2)c1 (stereo not drawn)
Given back: 87.3

Asked: Query viability for CCOc1ccccc1NC(=O)N1C2CCCC1CC(NC(=O)C1CC1)C2 (stereo not drawn)
Given back: 90

Asked: Query viability for COc1cc2[nH]c(=O)n(CCC(=O)N3CCc4ccccc4C3)c(=O)c2cc1OC
Given back: 95

Asked: Query viability for CC(C)COC(=O)NCC12C=CC(O1)C1C(=O)N(c3ccc(Cl)cc3)C(=O)C12 (stereo not drawn)
Given back: 92.5

Asked: Query viability for c1cncc(-c2nnc3n2N=C(c2cccs2)CS3)c1
Given back: 88.5

Asked: Query viability for CCOC(=O)N1CCN(CC(=O)c2c(C)[nH]c3ccccc23)CC1
Given back: 83.1

Asked: Query viability for O=C(c1cccs1)N1CCN=C1SCc1ccccc1
Given back: 84.2

Asked: Query viability for COC(=O)c1ccc(CSc2nc3c(cnn3-c3ccc(C)c(C)c3)c(=O)[nH]2)o1
Given back: 77.8

Asked: Query viability for CCc1ccccc1NC(=O)CCc1nc(-c2ccc(C)cc2)no1
Given back: 96.2

Asked: Query viability for O=C(Nc1ccc2c(c1)OCO2)C(c1ccc(Cl)cc1)N1CCN(C(=O)c2ccco2)CC1 (stereo not drawn)
Given back: 84.5

Asked: Query viability for CN(C)S(=O)(=O)c1ccc(Oc2ccc(S(=O)(=O)N(C)C)cc2)cc1
Given back: 94.6

Asked: Query viability for CC1(C)OC(=O)C(=CNc2ccccc2)C(=O)O1
Given back: 97.2

Asked: Query viability for CCC(C)Nc1nc2c(c(=O)n(C)c(=O)n2C)n1Cc1ccc(F)cc1 (stereo not drawn)
Given back: 97.6

Asked: Query viability for C/C=C/Cn1c(Br)nc2c1c(=O)[nH]c(=O)n2C
Given back: 86.3

Asked: Query viability for O=C(CCS(=O)(=O)c1cc(Br)cc2c1N(C(=O)C1CC1)CC2)NCC1CCCO1 (stereo not drawn)
Given back: 85.4

Asked: Query viability for CN(C)CCOC(C)(c1ccccc1)c1ccccn1 (stereo not drawn)
Given back: 105

Asked: Query viability for O=C(NCC1CCCCN1)c1cc(OCC(F)(F)F)ccc1OCC(F)(F)F (stereo not drawn)
Given back: 102

Asked: Query viability for Cc1ccc(S(=O)(=O)N2CCN(CCO)CC2)cc1-c1nnc2c3ccccc3c(C)nn12
Given back: 94.2

Asked: Query viability for CN(C)/C=C1\N=C(c2ccc3c(c2)OCO3)OC1=O
Given back: 76.9
